Attribution: patent US10376481B2

Target: human NHE3 (Homo sapiens)
Sequence (P48764 26-834): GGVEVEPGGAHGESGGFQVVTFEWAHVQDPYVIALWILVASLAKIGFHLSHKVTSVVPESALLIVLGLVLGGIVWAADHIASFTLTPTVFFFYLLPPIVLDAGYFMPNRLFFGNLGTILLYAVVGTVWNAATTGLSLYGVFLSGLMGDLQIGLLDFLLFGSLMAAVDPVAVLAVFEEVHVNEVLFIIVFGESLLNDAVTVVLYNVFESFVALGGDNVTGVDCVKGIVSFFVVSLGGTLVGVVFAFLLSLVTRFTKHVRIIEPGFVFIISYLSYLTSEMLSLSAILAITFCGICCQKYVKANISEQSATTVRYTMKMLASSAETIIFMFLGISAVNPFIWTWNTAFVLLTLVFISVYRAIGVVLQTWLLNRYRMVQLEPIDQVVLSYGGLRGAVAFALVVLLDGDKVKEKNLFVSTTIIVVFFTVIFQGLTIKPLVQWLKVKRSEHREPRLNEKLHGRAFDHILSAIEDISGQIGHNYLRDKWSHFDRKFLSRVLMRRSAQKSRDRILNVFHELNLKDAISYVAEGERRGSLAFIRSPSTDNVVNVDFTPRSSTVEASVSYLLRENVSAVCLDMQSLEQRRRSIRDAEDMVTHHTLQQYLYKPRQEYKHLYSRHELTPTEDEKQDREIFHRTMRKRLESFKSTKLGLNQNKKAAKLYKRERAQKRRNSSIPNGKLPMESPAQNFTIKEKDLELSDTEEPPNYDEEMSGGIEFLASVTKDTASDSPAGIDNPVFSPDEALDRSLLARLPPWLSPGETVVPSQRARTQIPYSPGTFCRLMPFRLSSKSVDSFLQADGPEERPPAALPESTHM
Test: Cell-based assay of NHE-3 activity (persistent inhibition), human
Conditions: PS120 fibroblasts stably expressing human NHE3, 60 min incubation then washout; read-out: pIC50 (human Persistence assay) (converted)
Observable: IC50

{"columns": ["Smi", "Tgt", "Test result"],
 "data": [
  ["CN(C)[C@H]1Cc2c(Cl)cc(Cl)cc2[C@@H]1Oc1ccc(S(=O)(=O)NCCOCCOCCNC(=O)C(C)(C)C(=O)NCCOCCOCCNS(=O)(=O)c2ccc(O[C@H]3c4cc(Cl)cc(Cl)c4C[C@@H]3N(C)C)cc2)cc1", "human NHE3 (Homo sapiens)", "100 to 1000 nM"],
  ["N[C@@H]1CCCN([C@H]2Cc3c(F)cc(Cl)cc3[C@@H]2Oc2ccc(S(=O)(=O)NCCOCCOCCNC(=O)NCCCCNC(=O)NCCOCCOCCNS(=O)(=O)c3ccc(O[C@H]4c5cc(Cl)cc(F)c5C[C@@H]4N4CCC[C@@H](N)C4)cc3)cc2)C1", "human NHE3 (Homo sapiens)", "> 1000 nM"],
  ["O=C(NCCCCNC(=O)NCCOCCOCCNS(=O)(=O)c1ccc(O[C@H]2c3cc(Cl)cc(F)c3C[C@@H]2N2CC[C@@H](O)C2)cc1)NCCOCCOCCNS(=O)(=O)c1ccc(O[C@H]2c3cc(Cl)cc(F)c3C[C@@H]2N2CC[C@@H](O)C2)cc1", "human NHE3 (Homo sapiens)", "< 100 nM"],
  ["O=C(NCCCCNC(=O)NCCOCCOCCNS(=O)(=O)c1ccc(O[C@H]2c3ccccc3C[C@@H]2N2CCCCC2)cc1)NCCOCCOCCNS(=O)(=O)c1ccc(O[C@H]2c3ccccc3C[C@@H]2N2CCCCC2)cc1", "human NHE3 (Homo sapiens)", "> 1000 nM"]
]}
